The reported measurements were obtained from patent US10662146B2.

- test: Single dose oral PK study in male Sprague Dawley rats (plasma by LC-MS/MS)
- Assay type: in vivo
- measurement.conditions: male, Sprague Dawley, rat, in vivo, po, 5 mg/kg, oral 5 mg/kg [equivalent to PRX-002 (−)], analyte: prodrug in plasma, mean; read-out: Oral PK Parameters Cmax, Prodrug
// Cmax lookup, one value per entry
Report as a plain number; the unit ng/mL is understood.

CCN(C(=O)[C@@H](NC(=O)[C@@H](N)C(C)C)C(C)C)C1C2CCC(C2)C1c1ccccc1 (single isomer, unassigned); 82.2
CCN(C(=O)[C@@H](N)Cc1ccccc1)C1C2CCC(C2)C1c1ccccc1 (stereo partly drawn) [PRX-P1-013]; 307

Next item in the queue.
Prompt: # Cmax lookup, item CCN(C(=O)[C@@H](N)CCCCN)C1C2CCC(C2)C1c1ccccc1 (stereo partly drawn) [PRX-P1-005]
Completion: 32

---

- test: Single dose intravenous PK study in male Sprague Dawley rats (plasma by LC-MS/MS)
- Format: in vivo
- measurement.conditions: male, Sprague-Dawley, rat, plasma, iv, 2 mg/kg, PRX-P4-003 IV 2 mg/kg, mean; read-out: Cmax of PRX-P4-003
experimental.readout: Cmax (ng/mL)
Report as a plain number; the unit ng/mL is understood.

Prompt: # Cmax lookup, item CCCCCCCCCCCCCCCCCC(=O)OCOC(=O)N(CC)C1C2CCC(C2)C1c1ccccc1 (single isomer, unassigned) [PRX-P4-003]
Completion: 172

---

- test: Single dose intravenous PK study in male Sprague Dawley rats (plasma by LC-MS/MS)
- Format: in vivo
- measurement.conditions: male, Sprague Dawley, rat, plasma, iv, 2 mg/kg, PRX-P5-006 IV 2 mg/kg, mean; read-out: AUCinf of PRX-P5-006
experimental.readout: AUC(0-inf) (ng·h/mL)
Report as a plain number; the unit ng·h/mL is understood.

Prompt: # AUC(0-inf) lookup, item CCCCCCCCCCCCCCCCCC(=O)OC(C)OC(=O)N(CC)C1C2CCC(C2)C1c1ccccc1 (single isomer, unassigned)
Completion: 4560

---

- test: Single dose oral PK study in male Sprague Dawley rats (plasma by LC-MS/MS)
- Type: in vivo
- measurement.conditions: male, Sprague Dawley, rat, in vivo, po, 5 mg/kg, single oral dose 5 mg/kg b.w., mean plasma PK parameters (mean ± SD); read-out: T1/2 (converted)
experimental.readout: half-life (min)
Report as a plain number; the unit min is understood.

Prompt: # half-life lookup, item CCN[C@H]1[C@H]2CC[C@H](C2)[C@@H]1c1ccccc1 [PRX-002 (+) Isomer, reference compound]
Completion: 59.5

---

- test: Single dose intravenous PK study in male Sprague Dawley rats (plasma by LC-MS/MS)
- Assay type: in vivo
- measurement.conditions: male, Sprague Dawley, rat, plasma, iv, 2 mg/kg, single IV dose 2 mg/kg b.w., mean plasma PK parameters (Table 39.27); read-out: AUClast
experimental.readout: AUC(0-t)
Your answer should be a number followed by the unit of measure.

Prompt: # AUC(0-t) lookup, item CCN[C@H]1[C@H]2CC[C@H](C2)[C@@H]1c1ccccc1 [PRX-002 (+) Isomer, reference compound]
Completion: 250 ng·h/mL

---

- test: Single dose intravenous PK study in male Sprague Dawley rats (plasma by LC-MS/MS)
- Format: in vivo
- measurement.conditions: male, Sprague-Dawley, rat, plasma, iv, 2 mg/kg, PRX-P5-011 IV 2 mg/kg b.w., 1.00 h, individual animals
experimental.readout: concentration at 1 h (ng/mL)
Report as a plain number; the unit ng/mL is understood.

Prompt: # concentration at 1 h lookup, item CCCCCCCCCCCCCCCCCC(=O)OC(C)OC(=O)N(CC)C1C2CCC(C2)C1c1ccccc1 (single isomer, unassigned)
Completion: 0
